Data origin: PubChem BioAssay AID1159580

Measured normalized growth values are reported for all entries that follow.
Test: chemical genetic growth profiling, strain panel (AID 1159580);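 note: tested at 20 µM; growth read once vehicle control cultures reached saturation at 30 °C; 1 = growth at the plate median or of vehicle wells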
Conditions: S. cerevisiae deletion strains, growth OD, locus YBR009C, strain hhf1, stronger effect = lower value
Out of some 5,500 compounds screened, about 2,000 (36%) were called active. About 18% were inconclusive and are not listed. Some of the results follow.
// print number alone

Before answering, review these 5 worked examples.
                                   compound  recorded_number
0                  CC(=O)Oc1c(C)cccc1C(=O)O             1.01
1                  CCCCC(=O)Oc1ccccc1C(=O)O            0.988
2  CC1OC1P(=O)(O)O (configuration not stated)            0.978
3           CC(C)[C@@H]1CC[C@@H](C)C[C@H]1O            0.998
4              CCCCNc1ccc(C(=O)OCCN(C)C)cc1            0.978

Req: Tell me the measured normalized growth of O=C(O)c1ccccc1-c1c2cc(Br)c(=O)cc-2oc2[c]([Hg])c(O)c(Br)cc12 , please.
Resp: 1.03

Req: Queued: CCCOc1ccc(C(=O)OCCN(CC)CC)cc1N
Resp: 1.03

Req: Note, next up: CCCCOC(=O)c1ccccc1C(=O)OCCCC
Resp: 0.968

---

Test: chemical genetic growth profiling, strain panel (AID 1159580);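 note: tested at 20 µM; growth read once vehicle control cultures reached saturation at 30 °C; 1 = growth at the plate median or of vehicle wells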
Settings: S. cerevisiae deletion strains, growth OD, locus YNL271C, strain bni1, stronger effect = lower value
The whole screen tested about 5,500 compounds, of which about 2,000 (36%) were called active. Another 18% or so got no clear call; they are omitted. The list shows a part of the results.
Returns: string. Value is true if measured normalized growth is below 1, and false if it is greater than or equal to it.

Req: Please check: normalized growth for C=CCSCC1Nc2cc(Cl)c(S(N)(=O)=O)cc2S(=O)(=O)N1 (stereo not given) , strictly under 1 or not?
Resp: false

Req: Let us now turn to COc1cc2occ(-c3ccccc3)c(=O)c2c(OC)c1C
Resp: true

---

Experiment: chemical genetic growth profiling, strain panel (AID 1159580);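 note: tested at 20 µM; growth read once vehicle control cultures reached saturation at 30 °C; 1 = growth at the plate median or of vehicle wells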
Settings: S. cerevisiae deletion strains, growth OD, locus YJL134W, strain LCB3
The campaign covered roughly 5,500 compounds. About 2,000 (36%) were called active. Another 18% or so got no clear call; they are omitted. No stated cut-off is given here; in the data, active means normalized growth mostly below about 0.91 (no sharp cut-off); inconclusive means no clear call, values can overlap the other calls; inactive means mostly above about 0.92. The list shows a part of the results.
Allowed answers: yes (1) = active, no (0) = inactive

                                   compound  category_label
0  CN1C(C(=O)Nc2ccccn2)=C(O)c2ccccc2S1(=O)=O          no (0)
1  C=C1C(=O)O[C@@H]2C[C@@]3(C)CCC[C@H](C)C3=C[C@H]12          no (0)
2  CC(C(=O)O)c1ccc(C(=O)c2cccs2)cc1 (configuration not stated)          no (0)
3  NS(=O)(=O)c1cc2c(cc1Cl)NC(C(Cl)Cl)NS2(=O)=O (configuration not stated)          no (0)
4  C#CCCCCCCCCCCCC(=O)CC(O)COC(C)=O (configuration not stated)         yes (1)

Shifting focus to the compound that follows.
Req: Test call, this compound: COc1c(OC)c2occc2c2oc(=O)ccc12
Resp: no (0)
